Target: T1, rat IL-11 (rat, UniProt Q99MF5 22-199)
T1 construct: Invigate, e.g. lot #C301019-19; also called rIL11
T1 sequence: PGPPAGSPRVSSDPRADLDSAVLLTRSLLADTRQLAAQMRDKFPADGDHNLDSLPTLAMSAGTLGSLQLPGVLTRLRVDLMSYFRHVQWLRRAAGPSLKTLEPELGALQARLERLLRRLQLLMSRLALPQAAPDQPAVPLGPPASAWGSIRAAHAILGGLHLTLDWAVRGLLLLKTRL
Test: SPR, antibody captured, IL-11 as analyte
pKd: −log10 of the molar value.
Reported pKd values for the following binders.
Recorded Metric: pKd

1. TPP-29381 (antibody, human IgG1, V domains shown) VH: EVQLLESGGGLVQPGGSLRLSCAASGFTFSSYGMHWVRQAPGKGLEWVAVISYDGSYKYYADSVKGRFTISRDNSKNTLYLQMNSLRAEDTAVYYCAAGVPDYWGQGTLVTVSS VL: QSVLTQPPSASGTPGQRVTISCSGSSSNIGSDYDVHWYQQLPGTAPKLLIYSNNERPSGVPDRFSGSKSGTSASLAISGLRSEDEADYYCSAWDSSLSGPVFGGGTKLTVL ... 9.52
2. TPP-29383 (antibody, human IgG1, V domains shown) VH: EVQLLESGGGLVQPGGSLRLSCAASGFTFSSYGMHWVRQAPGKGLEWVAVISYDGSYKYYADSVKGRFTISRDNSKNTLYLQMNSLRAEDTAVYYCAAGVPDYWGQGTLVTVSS VL: QSVLTQPPSASGTPGQRVTISCSGSSSNIGSDLDVHWYQQLPGTAPKLLIYSNEERPSGVPDRFSGSKSGTSASLAISGLRSEDEADYYCAAWDPSLYGPVFGGGTKLTVL ... 9.51
3. TPP-29382 (antibody, human IgG1, V domains shown) VH: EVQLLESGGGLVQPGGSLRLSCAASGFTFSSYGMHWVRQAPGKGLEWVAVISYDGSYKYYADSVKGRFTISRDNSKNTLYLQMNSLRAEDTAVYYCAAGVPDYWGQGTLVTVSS VL: QSVLTQPPSASGTPGQRVTISCSGSSSNIGSDLDVHWYQQLPGTAPKLLIYSNNERPSGVPDRFSGSKSGTSASLAISGLRSEDEADYYCAAWDFSLYGPVFGGGTKLTVL ... 9.70
4. TPP-29389 (antibody, human IgG1, V domains shown) VH: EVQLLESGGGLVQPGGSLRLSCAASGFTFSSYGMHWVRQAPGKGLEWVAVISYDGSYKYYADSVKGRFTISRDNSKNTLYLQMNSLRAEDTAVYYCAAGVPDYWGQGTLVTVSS VL: QSVLTQPPSASGTPGQRVTISCSGSSSNIGSYYDVHWYQQLPGTAPKLLIYSNEERPSGVPDRFSGSKSGTSASLAISGLRSEDEADYYCAAWDPSLYGPVFGGGTKLTVL ... 10.08
5. TPP-29401 (antibody, human IgG1, V domains shown) VH: EVQLLESGGGLVQPGGSLRLSCAASGFTFSSYGGHWVRQAPGKGLEWVAVISYDGSYKYYADSVKGRFTISRDNSKNTLYLQMNSLRAEDTAVYYCAAGVPDYWGQGTLVTVSS VL: QSVLTQPPSASGTPGQRVTISCSGSSSNIGSYYDVHWYQQLPGTAPKLLIYSNEERPSGVPDRFSGSKSGTSASLAISGLRSEDEADYYCAAWDDSLSGPVFGGGTKLTVL ... 10.24

Taken from patent US20240317847A1.
